src = the Human Domainome abundance scans (Beltran et al. 2025)

B1: POU domain, class 6, transcription factor 2, residues 609 to 663; numbered along this chain, P78424 (parent)
chain: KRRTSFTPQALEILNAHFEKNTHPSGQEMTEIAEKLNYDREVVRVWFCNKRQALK

Variants of: B1
Assay: abundance fitness (aPCA) (normalised: wild type 0, dead -1); higher = more abundant; growth selection in yeast, the domain comes from the species named
Details: Homo sapiens

{"variantKey": "F47N", "abundance fitness": -1.08}
{"variantKey": "F47T", "abundance fitness": -0.763}
{"variantKey": "T4A", "abundance fitness": -0.09}
{"variantKey": "F18Q", "abundance fitness": -0.937}
{"variantKey": "R51P", "abundance fitness": -0.636}
{"variantKey": "R3A", "abundance fitness": -0.136}
{"variantKey": "Q27D", "abundance fitness": 0.25}
{"variantKey": "L14V", "abundance fitness": -0.729}
{"variantKey": "N49V", "abundance fitness": -0.138}
{"variantKey": "F47M", "abundance fitness": -0.686}
{"variantKey": "A16G", "abundance fitness": -0.049}
{"variantKey": "K35E", "abundance fitness": -0.154}
{"variantKey": "H23F", "abundance fitness": -0.096}
{"variantKey": "R2E", "abundance fitness": 0.108}
{"variantKey": "R2C", "abundance fitness": -0.345}
{"variantKey": "E12V", "abundance fitness": -0.331}
{"variantKey": "I32W", "abundance fitness": -0.742}
{"variantKey": "R2A", "abundance fitness": 0.038}
{"variantKey": "G26C", "abundance fitness": -0.027}
{"variantKey": "I32G", "abundance fitness": -0.705}
{"variantKey": "A53H", "abundance fitness": 0.012}
{"variantKey": "Q52N", "abundance fitness": 0.014}
{"variantKey": "N37W", "abundance fitness": -0.444}
{"variantKey": "E12M", "abundance fitness": -0.222}
{"variantKey": "E34V", "abundance fitness": -0.194}
{"variantKey": "F6Q", "abundance fitness": -0.28}
{"variantKey": "N21D", "abundance fitness": -0.153}
{"variantKey": "L11D", "abundance fitness": -0.622}
{"variantKey": "T4V", "abundance fitness": -0.106}
{"variantKey": "P24Q", "abundance fitness": -0.741}
{"variantKey": "K1W", "abundance fitness": -0.267}
{"variantKey": "A10K", "abundance fitness": -0.587}
{"variantKey": "Q9N", "abundance fitness": -0.141}
{"variantKey": "L54H", "abundance fitness": -0.159}
{"variantKey": "L14T", "abundance fitness": -0.936}
{"variantKey": "N15A", "abundance fitness": -0.247}
{"variantKey": "F6S", "abundance fitness": -0.415}
{"variantKey": "G26L", "abundance fitness": -0.054}
{"variantKey": "D39G", "abundance fitness": -0.146}
{"variantKey": "V45P", "abundance fitness": -0.706}
{"variantKey": "L36C", "abundance fitness": -0.073}
{"variantKey": "N37G", "abundance fitness": 0.081}
{"variantKey": "V42W", "abundance fitness": -0.151}
{"variantKey": "P24T", "abundance fitness": -0.641}
{"variantKey": "E41I", "abundance fitness": -0.504}
{"variantKey": "H17N", "abundance fitness": -0.101}
{"variantKey": "E41P", "abundance fitness": -0.879}
{"variantKey": "R51T", "abundance fitness": -0.243}
{"variantKey": "L54A", "abundance fitness": -0.002}
{"variantKey": "E31D", "abundance fitness": -0.077}
{"variantKey": "A10N", "abundance fitness": -0.106}
{"variantKey": "E28V", "abundance fitness": -0.094}
{"variantKey": "E28F", "abundance fitness": -0.17}
{"variantKey": "A16F", "abundance fitness": -0.091}
{"variantKey": "S5R", "abundance fitness": -0.113}
{"variantKey": "P24R", "abundance fitness": -0.909}
{"variantKey": "A16M", "abundance fitness": 0.016}
{"variantKey": "A10L", "abundance fitness": -0.51}
{"variantKey": "C48Y", "abundance fitness": -0.062}
{"variantKey": "V45D", "abundance fitness": 0.094}
{"variantKey": "Q27G", "abundance fitness": -0.063}
{"variantKey": "P24K", "abundance fitness": -1.1}
{"variantKey": "H17I", "abundance fitness": -0.028}
{"variantKey": "E28Q", "abundance fitness": -0.171}
{"variantKey": "S5P", "abundance fitness": -0.032}
{"variantKey": "E19F", "abundance fitness": -0.288}
{"variantKey": "N21A", "abundance fitness": -0.198}
{"variantKey": "N15W", "abundance fitness": -0.361}
{"variantKey": "A16P", "abundance fitness": -0.865}
{"variantKey": "C48S", "abundance fitness": 0.039}
{"variantKey": "R3T", "abundance fitness": -0.134}
{"variantKey": "H17G", "abundance fitness": -0.369}
{"variantKey": "F47A", "abundance fitness": -0.744}
{"variantKey": "D39Q", "abundance fitness": -0.152}
{"variantKey": "D39M", "abundance fitness": -0.483}
{"variantKey": "F6I", "abundance fitness": 0.092}
{"variantKey": "T7S", "abundance fitness": -0.042}
{"variantKey": "L11Y", "abundance fitness": -0.339}
{"variantKey": "R44M", "abundance fitness": -0.075}
{"variantKey": "K55N", "abundance fitness": -0.186}
{"variantKey": "R44Y", "abundance fitness": 0.062}
{"variantKey": "P24H", "abundance fitness": -0.905}
{"variantKey": "R40T", "abundance fitness": -0.011}
{"variantKey": "T22L", "abundance fitness": -0.017}
{"variantKey": "Y38F", "abundance fitness": -0.145}
{"variantKey": "E41D", "abundance fitness": -0.104}
{"variantKey": "F6G", "abundance fitness": -0.326}
{"variantKey": "Q52I", "abundance fitness": 0.045}
{"variantKey": "A10E", "abundance fitness": 0.062}
{"variantKey": "K50V", "abundance fitness": -0.638}
{"variantKey": "Q27H", "abundance fitness": 0.243}
